# System: CSNK1D;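 further: KINOMEscan kinase panel screen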
# REPORTED_CONDITIONS: concentration: 1 μM, replicates: in singlicate; n = 1
OBSERVED_PROPERTY: %Inh (%)
The reply should contain only the number, in %.

For record COc1ccc(CNC(=O)NC2CCN(c3ccnc(Nc4ccc(F)cc4)n3)CC2)cc1 [GSK1379788] the listed %Inh is 42

For record COc1cc(Nc2nccc(-c3c(-c4cccc(NC(=O)c5c(F)cccc5F)c4)nn4ccccc34)n2)cc(OC)c1OC [GSK323521] the listed %Inh is 29

For record CN(C)Cc1ccc(-c2ccc3c(Nc4ccc(Oc5ccccn5)cc4)ccnc3c2)o1 [GW567148] the listed %Inh is 0

For record Cc1ccc(C(=O)N2CC[C@@H](O)C2)cc1-n1c(C)cc(OCc2ccc(F)cc2F)c(Br)c1=O the listed %Inh is 0

For record Cl.Cl.NCC(NCc1ccc(-c2ccnc3[nH]ccc23)s1)c1ccccc1 (centres unmarked) [GSK1321565] the listed %Inh is 26

For record CN(c1ccc(NC(=O)Nc2cc(C(F)(F)F)ccc2F)cc1)c1ccnc(Nc2ccc(S(N)(=O)=O)cc2)n1 [GW809893] the listed %Inh is 0

For record CN(C)S(=O)(=O)c1cc(-c2ccc3nccc(-c4cccc(S(N)(=O)=O)c4)c3c2)cnc1N [GSK1669921] the listed %Inh is 0

For record Cc1ccc(F)c(C(=O)Nc2cccc(-c3nn4ccccc4c3-c3ccnc(Nc4cccc(F)c4)n3)c2)c1F [GSK361061] the listed %Inh is 35

Next:
For record O=C(NC1CCN(c2ccnc(Nc3ccc(F)cc3)n2)C1)c1cc2ccccc2s1 (centres unmarked) [GSK1379716] the listed %Inh is 0

For record COc1cc(Nc2nccc(-c3c(-c4cccc(NC(=O)c5c(F)cccc5F)c4)nn4ncccc34)n2)cc(OC)c1OC [GSK327238] the listed %Inh is 23

For record O=c1[nH]cc(-c2ccc(N3CCOCC3)cc2)c2sc(-c3cn[nH]c3)cc12 [GSK2276055] the listed %Inh is 84

For record CN1CCN(CCCNc2nccc(-c3c(-c4ccc(F)cc4)nn4cc(C(F)(F)F)ccc34)n2)CC1 [GW621581] the listed %Inh is 90.6

For record Cl.Cl.NCC(NC(=O)c1cc(-c2ccccc2)c(-c2ccnc3[nH]ccc23)s1)c1ccccc1 (centres unmarked) [GSK1321561] the listed %Inh is 98

For record C[C@@H](Oc1cc(-n2cnc3cc(-c4ccnc(NCCS(C)(=O)=O)c4)ccc32)sc1C(N)=O)c1ccccc1Cl [GSK907232] the listed %Inh is 0

For record C[C@@H]1CC[C@@H](C(=O)Nc2ccccc2)CN1c1cc(-c2ccc3c(N)n[nH]c3c2)nc(N)n1 [GSK2286062] the listed %Inh is 20

From: paper PMC5540273
